Test system: HIV-1 303B
assayProtocol: microbe, parasite or virus in culture
Type: cell-based
runConditions: in combination with Example 19; EC50 ratio Example 19:comparator 1:2.5; 95% CI in parenthesis
propertyLabel: Combination Indices at 50% HIV Inhibition (Confidence Interval)

Please review the following examples before continuing.
**Q:** Quick check: Combination Indices at 50% HIV Inhibition (Confidence Interval) on HIV-1 303B, item `Nc1ccn([C@H]2CC[C@@H](CO)O2)c(=O)n1` ?
**A:** 0.55 (0.44, 0.66)

**Q:** What about `Nc1nc(=O)n([C@@H]2CS[C@H](CO)O2)cc1F` ?
**A:** 0.31 (0.26, 0.37)

Next:
**Q:** # query: Combination Indices at 50% HIV Inhibition (Confidence Interval) | item `Cc1cn([C@H]2C=C[C@@H](CO)O2)c(=O)[nH]c1=O` | system: HIV-1 303B
**A:** 0.60 (0.48, 0.71)

**Q:** Also `Cc1cccc(C)c1OCC(=O)N[C@@H](Cc1ccccc1)[C@@H](O)C[C@H](Cc1ccccc1)NC(=O)[C@H](C(C)C)N1CCCNC1=O` , if possible.
**A:** 0.77 (0.66, 0.88)

* * *

IC50 by entry:
systemName: HIV-integrase (Human immunodeficiency virus type 1 group M subtype B, UniProt P12497)
Construct: Recombinant integrase (0.26 ng) was incubated with the beads
assayProtocol: HIV-Integrase Inhibition Activity (SPA bead strand-transfer assay)
Type: biochemical
runConditions: Table 1; read-out: Activity (HIV-integrase inhibition, IC50 class)

**Q:** Using the record for `Cc1cc(F)ccc1CNC(=O)c1nc2n(c(=O)c1O)CCOC2(C)C` , report its IC50.
**A:** 2 to 100 nM

**Q:** Can you handle `CSc1cc(F)ccc1CNC(=O)c1nc2n(c(=O)c1O)CCOC2(C)C` next?
**A:** 2 to 100 nM

**Q:** Another compound to look at: `CC(=O)N1CCN(C(=O)c2ncn(-c3cc(F)ccc3CNC(=O)c3nc4n(c(=O)c3O)CCOC4(C)C)n2)CC1`
**A:** 2 to 100 nM

**Q:** Would you mind doing `Cc1cnc(-c2cc(F)ccc2CNC(=O)c2nc3n(c(=O)c2O)CCOC3(C)C)o1` as well?
**A:** 2 to 100 nM

* * *

# reported Combination Indices at 90% HIV Inhibition (Confidence Interval); entries follow
System: HIV-1 303B
assayProtocol: microbe, parasite or virus in culture
Type: cell-based
runConditions: in combination with Example 19; EC50 ratio Example 19:comparator 1:1; 95% CI in parenthesis

**Q:** Which Combination Indices at 90% HIV Inhibition (Confidence Interval) reading was recorded for the compound `O=c1[nH]cnc2c1ncn2[C@H]1CC[C@@H](CO)O1` ?
**A:** 0.39 (0.22, 0.56)

Next:
**Q:** Consider the compound shown here: `Nc1nc(=O)n([C@@H]2CS[C@H](CO)O2)cc1F` What is its recorded Combination Indices at 90% HIV Inhibition (Confidence Interval)?
**A:** 0.18 (0.12, 0.24)

**Q:** Would you mind doing `O=C1Nc2ccc(Cl)cc2[C@@](C#CC2CC2)(C(F)(F)F)O1` as well?
**A:** 0.70 (0.54, 0.85)

* * *

In this section, each of the molecules is paired with its reported Combination Indices at 75% HIV Inhibition (Confidence Interval).
System: HIV-1 303B
assayProtocol: microbe, parasite or virus in culture
Assay type: cell-based
runConditions: in combination with Example 19; EC50 ratio Example 19:comparator 2.5:1; 95% CI in parenthesis

The cases that follow already have their Combination Indices at 75% HIV Inhibition (Confidence Interval) on record.
**Q:** Any idea what Combination Indices at 75% HIV Inhibition (Confidence Interval) came out for Cc1cn([C@H]2C=C[C@@H](CO)O2)c(=O)[nH]c1=O [Stavudine, stavudine] on HIV-1 303B?
**A:** 0.63 (0.48, 0.79)

**Q:** Cc1c(O)cccc1C(=O)N[C@@H](CSc1ccccc1)[C@H](O)CN1C[C@H]2CCCC[C@H]2C[C@H]1C(=O)NC(C)(C)C [Nelfinavir, nelfinavir] , same question.
**A:** 0.98 (0.89, 1.08)

We next turn to a different molecule, shown below.
**Q:** Recorded Combination Indices at 75% HIV Inhibition (Confidence Interval) for CC(C)Nc1cccnc1N1CCN(C(=O)c2cc3cc(NS(C)(=O)=O)ccc3[nH]2)CC1 [Delavirdine, delavirdine] with HIV-1 303B, please?
**A:** 0.53 (0.42, 0.63)

* * *

Test system: HIV-1 303B
assayProtocol: microbe, parasite or virus in culture
Assay type: cell-based
runConditions: in combination with Example 19; EC50 ratio Example 19:comparator 1:2.5; 95% CI in parenthesis
Reported Combination Indices at 50% HIV Inhibition (Confidence Interval) by item:

# count of solved cases: 5
**Q:** What does the data say about its Combination Indices at 50% HIV Inhibition (Confidence Interval)? Entry: CC(C)CN(C[C@@H](O)[C@H](Cc1ccccc1)NC(=O)O[C@H]1CCOC1)S(=O)(=O)c1ccc(N)cc1 [Amprenavir, amprenavir]
**A:** 0.84 (0.69, 0.99)

**Q:** Follow-up item: CC(C)(C)NC(=O)[C@@H]1CN(Cc2cccnc2)CCN1C[C@@H](O)C[C@@H](Cc1ccccc1)C(=O)N[C@H]1c2ccccc2C[C@H]1O [Indinavir, indinavir]
**A:** 0.92 (0.84, 0.99)

**Q:** Next compound up: O=c1[nH]cnc2c1ncn2[C@H]1CC[C@@H](CO)O1 [Didanosine, didanosine]
**A:** 0.56 (0.51, 0.62)

**Q:** Field entry: COC(=O)N[C@H](C(=O)N[C@@H](Cc1ccccc1)[C@@H](O)CN(Cc1ccc(-c2ccccn2)cc1)NC(=O)[C@@H](NC(=O)OC)C(C)(C)C)C(C)(C)C [Atazanavir, atazanavir]
**A:** 0.65 (0.51, 0.78)

**Q:** Now this one: Nc1nc(NC2CC2)c2ncn([C@H]3C=C[C@@H](CO)C3)c2n1 [Abacavir, abacavir]
**A:** 0.87 (0.77, 0.97)

Kindly consider the entry below.
**Q:** Fill in the blank: the reported Combination Indices at 50% HIV Inhibition (Confidence Interval) of CC(C)(C)NC(=O)[C@@H]1C[C@@H]2CCCC[C@@H]2CN1C[C@@H](O)[C@H](Cc1ccccc1)NC(=O)[C@H](CC(N)=O)NC(=O)c1ccc2ccccc2n1 [Saquinavir, saquinavir] is ____.
**A:** 0.43 (0.38, 0.48)

* * *

System: HIV-1 303B
assayProtocol: microbe, parasite or virus in culture
Assay type: cell-based
runConditions: in combination with Example 19; EC50 ratio Example 19:comparator 1:1; 95% CI in parenthesis
The molecules listed here are annotated with their Combination Indices at 75% HIV Inhibition (Confidence Interval).

Worked examples, 2 molecules total:
**Q:** What value of measured Combination Indices at 75% HIV Inhibition (Confidence Interval) is listed for `Nc1ccn([C@H]2CC[C@@H](CO)O2)c(=O)n1` ?
**A:** 0.56 (0.39, 0.73)

**Q:** Try `COC(=O)N[C@H](C(=O)N[C@@H](Cc1ccccc1)[C@@H](O)CN(Cc1ccc(-c2ccccn2)cc1)NC(=O)[C@@H](NC(=O)OC)C(C)(C)C)C(C)(C)C` next.
**A:** 0.67 (0.55, 0.80)

Continuing:
**Q:** Fill in the blank: the reported Combination Indices at 75% HIV Inhibition (Confidence Interval) of `Cc1cn([C@H]2C=C[C@@H](CO)O2)c(=O)[nH]c1=O` is ____.
**A:** 0.46 (0.36, 0.56)

**Q:** Same question for `Nc1nc(NC2CC2)c2ncn([C@H]3C=C[C@@H](CO)C3)c2n1` please.
**A:** 0.67 (0.56, 0.79)

**Q:** Then what about the molecule `Cc1c(O)cccc1C(=O)N[C@@H](CSc1ccccc1)[C@H](O)CN1C[C@H]2CCCC[C@H]2C[C@H]1C(=O)NC(C)(C)C` ?
**A:** 0.75 (0.67, 0.82)

**Q:** Let us now turn to `O=c1[nH]cnc2c1ncn2[C@H]1CC[C@@H](CO)O1`
**A:** 0.47 (0.35, 0.60)

**Q:** Record: `Nc1nc(=O)n([C@@H]2CS[C@H](CO)O2)cc1F`
**A:** 0.23 (0.18, 0.28)

**Q:** Another molecule to check: `CC(C)Nc1cccnc1N1CCN(C(=O)c2cc3cc(NS(C)(=O)=O)ccc3[nH]2)CC1`
**A:** 0.60 (0.47, 0.74)

* * *

propertyLabel: melting point (°C)
Supply the numeric figure in °C, leaving out any unit text.

**Q:** # get_value(readout='melting point', item= `Cn1nccc1-c1cc(F)ccc1CNC(=O)c1nc2n(c(=O)c1O)CCOC2(C)C` )
**A:** 221

**Q:** Next up: `O=C(NCc1ccc(F)cc1)c1nc2n(c(=O)c1O)CCOC2`
**A:** 211

New cases:
**Q:** What value of melting point has been reported for the following compound? CC1OCCn2c1nc(C(=O)NCc1ccc(Cl)c(Cl)c1)c(O)c2=O (stereo not drawn)
**A:** 192
